Recorded TGI for the following compounds
Test system: SK-OV-3 ovarian
Experiment: NCI tumour cell line growth inhibition, 48 h

Here are 3 compounds together with their reported answers.
INSERT INTO assay_data (compound, target_desc, val) VALUES
  ('CC1(C2CCC3(C)OC3C2)CO1 (centres undefined)', 'SK-OV-3 ovarian', '> 100 µM'),
  ('CN(C=O)/C=C/c1cc(O)ccc1O', 'SK-OV-3 ovarian', '> 100 µM'),
  ('COc1ccc(C2CCc3cc4c(cc3/C2=N/OC(C)=O)OCO4)cc1OC (centres undefined)', 'SK-OV-3 ovarian', '95.3 µM');

If you can, please state the reported TGI value of `CS(=O)(=O)NC12CCC(c3ccccc31)c1ccccc12` .
> 100 µM
